Assay: Cytotoxic assay (MTT, ISO 10993-5:2009(E)), 24 h treatment
Assay type: cell-based
Conditions: L929 mouse fibroblast cells, L929 mouse fibroblasts, values above highest tested concentration extrapolated
Kindly state CC50 at 24 h for each of the entries shown.
One number for each entry, in µM.

INSERT INTO results (compound, value_unit, recorded_value) VALUES
  ('COC(=O)C=C1SC(=NN=Cc2ccc(O)c(Cl)c2)N(c2ccccc2)C1=O', 'µM', 474),
  ('O=C(O)CC1SC(=NN=Cc2ccc(O)c(Br)c2)N(c2ccc(Cl)cc2)C1=O (stereo not drawn)', 'µM', 425),
  ('CCOc1cc(C=NN=C2SC(CC(=O)O)C(=O)N2c2ccc(Cl)cc2)ccc1O (stereo not drawn)', 'µM', 759);

Quick one: give me CC50 at 24 h for each item below, same order please.
1. O=C(O)CC1SC(=NN=Cc2cccc(O)c2)N(c2ccc(Cl)cc2)C1=O (stereo not drawn)
2. O=C1CSC(=NN=Cc2ccc(O)cc2)N1c1ccccc1
3. CCOc1cc(C=NN=C2SC(=CC(=O)OC)C(=O)N2c2ccccc2)ccc1O
4. O=C1CSC(=NN=Cc2cccc(O)c2)N1c1ccc(Cl)cc1

[656, 485, 463, 173]

---

Exercise: state measured melting point for each of the compounds provided.

Examples from the recorded data:
INSERT INTO measurements (compound, recorded_value) VALUES
  ('O=C1CSC(=NN=Cc2ccc(O)cc2)N1c1ccc(Br)cc1', '288 to 290 °C'),
  ('COC(=O)C=C1SC(=NN=Cc2ccc(O)c(OC)c2)N(c2ccccc2)C1=O', '210 to 212 °C'),
  ('COc1cc(C=NN=C2SCC(=O)N2c2ccc(Cl)cc2Cl)ccc1O', '140 to 142 °C'),
  ('O=C(O)CC1SC(=NN=Cc2cccc(O)c2)N(c2ccc(Cl)cc2)C1=O (stereo not drawn)', '226 to 228 °C'),
  ('O=C1CSC(=NN=Cc2ccccc2O)N1c1ccccc1Cl', '168 to 170 °C'),
  ('COC(=O)C=C1SC(=NN=Cc2ccc(O)c(Br)c2)N(c2ccccc2)C1=O', '236 to 238 °C'),
  ('O=C(O)CC1SC(=NN=Cc2ccccc2O)N(c2ccccc2)C1=O (stereo not drawn)', '228 to 230 °C'),
  ('O=C1CSC(=NN=Cc2ccccc2O)N1c1ccc(Cl)cc1', '238 to 240 °C');

Tell us which melting point value is on record for COc1cc(C=NN=C2SCC(=O)N2c2ccc(Cl)cc2)ccc1O 226 to 228 °C

---

Exercise: for every item that follows, state its recorded melting point.

// below: answered compounds
INSERT INTO measurements (compound, recorded_value) VALUES
  ('O=C1CSC(=NN=Cc2ccc(O)cc2)N1c1cccc(Cl)c1 [Compound 54]', '262 to 264 °C'),
  ('COc1cc(C=NN=C2SC(CC(=O)O)C(=O)N2c2ccc(Cl)cc2)ccc1O (stereo not drawn) [Compound 84]', '254 to 256 °C'),
  ('CCOc1cc(C=NN=C2SC(CC(=O)O)C(=O)N2c2ccccc2)ccc1O (stereo not drawn) [Compound 78]', '224 to 226 °C');

Please give melting point, item by item, for the list that follows.
1. O=C(O)CC1SC(=NN=Cc2ccc(O)cc2)N(c2ccc(Cl)cc2)C1=O (stereo not drawn) [Compound 83]
2. O=C(O)CC1SC(=NN=Cc2ccc(O)c(Cl)c2)N(c2ccccc2)C1=O (stereo not drawn) [Compound 79]
3. O=C(O)CC1SC(=NN=Cc2cccc(O)c2)N(c2ccccc2)C1=O (stereo not drawn) [Compound 75]
4. COC(=O)C=C1SC(=NN=Cc2ccccc2O)N(c2ccc(Cl)cc2)C1=O [Compound 97]
5. O=C1CSC(=NN=Cc2ccccc2O)N1c1cccc(Cl)c1 [Compound 52]

234 to 235 °C
244 to 246 °C
214 to 216 °C
214 to 216 °C
194 to 196 °C
